What activation was measured for each of the following?
biological target: CCR2 (Homo sapiens, UniProt P41597); construct: expressed in transfected cells; test: Figure S2a opioid peptide screen on chemokine receptors; format: cell-based; design: dose or concentration left out as unconfirmed; settings: replicate 2, read-out: CCR2 activity, ctrl+ = 100
Sequence (P41597 1-360 isoform P41597-2): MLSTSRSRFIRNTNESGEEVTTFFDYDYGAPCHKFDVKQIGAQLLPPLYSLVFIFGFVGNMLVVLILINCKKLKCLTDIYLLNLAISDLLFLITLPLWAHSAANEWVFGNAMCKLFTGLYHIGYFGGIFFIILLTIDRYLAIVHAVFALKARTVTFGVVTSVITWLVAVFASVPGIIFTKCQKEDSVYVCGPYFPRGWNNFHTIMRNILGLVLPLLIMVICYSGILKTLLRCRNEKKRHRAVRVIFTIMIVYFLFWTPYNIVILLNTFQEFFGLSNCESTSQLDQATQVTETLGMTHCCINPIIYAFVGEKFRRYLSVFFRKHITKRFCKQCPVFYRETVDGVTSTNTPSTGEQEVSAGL
Starred links: 1 amine or outer side, 2 acyl side, 3 side chain; linkers in the order of their positions; H or OH if unused. Non-standard residues stand in square brackets, D forms with d. Residues, ends and D or L forms follow the SMILES beside them. X1 = N[C@@H](Cc1ccccc1)CN(CC(=O)[*:2])[*:1]
Give the quantity in %, number only.

Q: Given the entry CC[C@H](C)[C@H](NC(=O)[C@H](CCCNC(=N)N)NC(=O)[C@H](CCCNC(=N)N)NC(=O)[C@H](CC(C)C)NC(=O)[C@H](Cc1ccccc1)NC(=O)CNC(=O)CN)C(=O)N[C@@H](CCCNC(=N)N)C(=O)N1CCC[C@H]1C(=O)N[C@@H](CCCCN)C(=O)N[C@@H](CC(C)C)C(=O)N[C@@H](CCCCN)C(=O)N[C@@H](Cc1c[nH]c2ccccc12)C(=O)N[C@@H](CC(=O)O)C(=O)N[C@@H](CC(N)=O)C(=O)N[C@@H](CCC(N)=O)C(=O)O [Dynorphin 2-17] , what activation was observed with CCR2 (Homo sapiens, UniProt P41597)?
Ans: -1.44

Q: Lookup: activation / CCR2 (Homo sapiens, UniProt P41597) / CC[C@H](C)[C@H](NC(=O)[C@H](CCCNC(=N)N)NC(=O)[C@H](CCCNC(=N)N)NC(=O)[C@H](CC(C)C)NC(=O)[C@H](Cc1ccccc1)NC(=O)CNC(=O)CNC(=O)[C@@H](N)Cc1ccc(O)cc1)C(=O)N[C@@H](CCCNC(=N)N)C(=O)N1CCC[C@H]1C(=O)N[C@@H](CCCCN)C(=O)N[C@@H](CC(C)C)C(=O)N[C@@H](CCCCN)C(=O)O [Dynorphin 1-13]
Ans: -2.52

Q: Record C[C@H](NC(=O)CNC(=O)[C@@H](NC(=O)[C@H](Cc1ccccc1)NC(=O)CNC(=O)CNC[C@@H](N)Cc1ccccc1)[C@@H](C)O)C(=O)N[C@@H](CCCNC(=N)N)C(=O)N[C@@H](CCCCN)C(=O)N[C@@H](CO)C(=O)N[C@@H](C)C(=O)N[C@@H](CCCNC(=N)N)C(=O)N[C@@H](CCCCN)C(N)=O [FG Nociceptin 1-13] (H-[X1]GFTGARKSARK-NH2) : what is its activation with CCR2 (Homo sapiens, UniProt P41597)?
Ans: -0.651

====

biological target: CCR8 (Homo sapiens, UniProt P51685); experiment: Figure S2a opioid peptide screen on chemokine receptors; design: dose or concentration left out as unconfirmed; conditions: read-out: CCR8 activity, ctrl+ = 100, Figure S2a; replicate 3
Sequence (P51685 whole entry): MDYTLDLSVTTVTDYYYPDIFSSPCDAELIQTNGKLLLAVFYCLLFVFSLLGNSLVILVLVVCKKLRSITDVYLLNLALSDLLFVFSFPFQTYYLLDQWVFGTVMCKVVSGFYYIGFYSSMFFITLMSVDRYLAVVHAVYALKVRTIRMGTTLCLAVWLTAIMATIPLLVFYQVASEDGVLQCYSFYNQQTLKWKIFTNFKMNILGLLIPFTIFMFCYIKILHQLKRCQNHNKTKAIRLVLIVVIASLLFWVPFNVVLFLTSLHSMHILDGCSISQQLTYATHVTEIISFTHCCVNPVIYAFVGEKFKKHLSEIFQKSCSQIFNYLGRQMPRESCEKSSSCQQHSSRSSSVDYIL
READOUT KIND: activation
Write the figure, then the unit, nothing else.

Q: Request the reported activation associated with CC(C)C[C@H](NC(=O)[C@H](Cc1ccccc1)NC(=O)CNC(=O)CNC(=O)[C@@H](N)Cc1ccc(O)cc1)C(=O)N[C@@H](CCCN=C(N)N)C(=O)N[C@@H](CCCN=C(N)N)C(=O)N[C@@H](CCC(N)=O)C(=O)N[C@@H](Cc1ccccc1)C(=O)N[C@@H](CCCCN)C(=O)N[C@H](C(=O)N[C@H](C(=O)N[C@H](C(=O)O)[C@@H](C)O)C(C)C)C(C)C [Dynorphin B]
Ans: 18.8%

====

target: ACKR3 (Homo sapiens); type: cell-based; set-up: expressed in transfected cells; conditions: 100 nM, replicate 3
Sequence (P25106 whole entry): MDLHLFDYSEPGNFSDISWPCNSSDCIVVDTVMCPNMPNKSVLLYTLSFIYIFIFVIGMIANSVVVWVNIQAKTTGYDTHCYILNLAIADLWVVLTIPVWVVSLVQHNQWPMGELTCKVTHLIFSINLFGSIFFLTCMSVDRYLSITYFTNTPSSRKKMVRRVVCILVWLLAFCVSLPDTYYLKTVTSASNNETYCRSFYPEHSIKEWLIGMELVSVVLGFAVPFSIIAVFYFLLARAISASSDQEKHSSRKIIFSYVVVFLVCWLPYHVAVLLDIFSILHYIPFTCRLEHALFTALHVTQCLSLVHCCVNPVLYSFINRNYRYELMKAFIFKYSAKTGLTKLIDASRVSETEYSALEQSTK
Assign ACKR3 activity, Fig 4a to each entry below.

Q: Which ACKR3 activity, Fig 4a is listed for Oc1ccc2c3c1O[C@H]1c4[nH]c5c(c4C[C@@]4(O)[C@@H](C2)N(CC2CC2)CC[C@]314)C[C@@]1(O)[C@H]2Cc3ccc(O)c4c3[C@@]1(CCN2CC1CC1)[C@H]5O4 [nor-Binaltrophimine] ?
Ans: 1.2819

Q: Value lookup for ACKR3 activity, Fig 4a; key = Oc1ccc2c3c1O[C@H]1c4[nH]c5ccccc5c4C[C@@]4(O)[C@@H](C2)N(CC2CC2)CC[C@]314 [Naltrindole]
Ans: 1.281

Q: Name the recorded ACKR3 activity, Fig 4a for C=CCN1CC[C@]23CCCC[C@H]2[C@H]1Cc1ccc(O)cc13 [Levallorphan] .
Ans: -0.5025

Q: Need ACKR3 activity, Fig 4a, item C=CCN1CC[C@]23c4c5ccc(O)c4O[C@H]2C(=O)CC[C@@]3(O)[C@H]1C5 [Naloxone]
Ans: -9.5257

====

target: CCR6 (Homo sapiens, UniProt P51684); construct: expressed in transfected cells; assay: Figure S2a opioid peptide screen on chemokine receptors; type: cell-based; set-up: dose or concentration left out as unconfirmed; settings: replicate 3, read-out: CCR6 activity, ctrl+ = 100
Sequence (P51684 whole entry): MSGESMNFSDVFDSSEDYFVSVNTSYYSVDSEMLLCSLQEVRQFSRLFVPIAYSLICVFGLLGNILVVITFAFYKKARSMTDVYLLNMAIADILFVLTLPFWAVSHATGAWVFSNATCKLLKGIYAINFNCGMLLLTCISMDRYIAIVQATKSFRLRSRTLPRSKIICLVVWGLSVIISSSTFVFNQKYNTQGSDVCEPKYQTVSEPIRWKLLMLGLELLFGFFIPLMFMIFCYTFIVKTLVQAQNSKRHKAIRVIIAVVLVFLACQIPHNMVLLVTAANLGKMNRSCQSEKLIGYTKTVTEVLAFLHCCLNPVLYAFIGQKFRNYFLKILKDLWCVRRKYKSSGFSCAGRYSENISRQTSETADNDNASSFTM
Starred links: 1 amine or outer side, 2 acyl side, 3 side chain; linkers in the order of their positions; H or OH if unused. Non-standard residues stand in square brackets, D forms with d. Residues, ends and D or L forms follow the SMILES beside them. X1 = N[C@@H](Cc1ccccc1)CN(CC(=O)[*:2])[*:1]
READOUT KIND: activation (%)
Quick reminder: number only, in %, skip the unit.

Q: Given the compound CC(C)C[C@H](NC(=O)[C@H](Cc1ccccc1)NC(=O)CNC(=O)CNC(=O)[C@@H](N)Cc1ccc(O)cc1)C(=O)N[C@@H](CCCN=C(N)N)C(=O)N[C@@H](CCCN=C(N)N)C(=O)N[C@@H](CCC(N)=O)C(=O)N[C@@H](Cc1ccccc1)C(=O)N[C@@H](CCCCN)C(=O)N[C@H](C(=O)N[C@H](C(=O)N[C@H](C(=O)O)[C@@H](C)O)C(C)C)C(C)C , what is its reported activation?
Ans: -3.12

Q: For the compound shown here, CC[C@H](C)[C@H](NC(=O)[C@H](CCCNC(=N)N)NC(=O)[C@H](CCCNC(=N)N)NC(=O)[C@H](CC(C)C)NC(=O)[C@H](Cc1ccccc1)NC(=O)CNC(=O)CNC(=O)[C@@H](N)Cc1ccc(O)cc1)C(=O)N[C@@H](CCCNC(=N)N)C(=O)N1CCC[C@H]1C(=O)N[C@@H](CCCCN)C(=O)N[C@@H](CC(C)C)C(=O)N[C@@H](CCCCN)C(=O)N[C@@H](Cc1c[nH]c2ccccc12)C(=O)N[C@@H](CC(=O)O)C(=O)N[C@@H](CC(N)=O)C(=O)N[C@@H](CCC(N)=O)C(=O)O , give the reported activation.
Ans: -4.07

Q: I would be grateful if you could share the reported activation for C[C@H](NC(=O)CNC(=O)[C@@H](NC(=O)[C@H](Cc1ccccc1)NC(=O)CNC(=O)CNC(=O)[C@@H](N)Cc1ccccc1)[C@@H](C)O)C(=O)N[C@@H](CCCNC(=N)N)C(=O)N[C@@H](CCCCN)C(=O)N[C@@H](CO)C(=O)N[C@@H](C)C(=O)N[C@@H](CCCNC(=N)N)C(=O)N[C@@H](CCCCN)C(N)=O .
Ans: -0.351

Q: Can you look up the measured activation of CSCC[C@H](NC(=O)[C@H](Cc1ccccc1)NC(=O)CNC(=O)CNC(=O)[C@@H](N)Cc1ccc(O)cc1)C(=O)N[C@@H](CCCNC(=N)N)C(=O)N[C@@H](CCCNC(=N)N)C(=O)N[C@H](C(N)=O)C(C)C for me?
Ans: -1.64

Q: Param item = C[C@H](NC(=O)CNC(=O)[C@@H](NC(=O)[C@H](Cc1ccccc1)NC(=O)CNC(=O)CNC[C@@H](N)Cc1ccccc1)[C@@H](C)O)C(=O)N[C@@H](CCCNC(=N)N)C(=O)N[C@@H](CCCCN)C(=O)N[C@@H](CO)C(=O)N[C@@H](C)C(=O)N[C@@H](CCCNC(=N)N)C(=O)N[C@@H](CCCCN)C(N)=O [FG Nociceptin 1-13] (H-[X1]GFTGARKSARK-NH2) ; retrieve measured activation.
Ans: 5.07

====

Biological target: CXCR1 (Homo sapiens, UniProt P25024)
Construct: expressed in transfected cells
Sequence (P25024 1-350): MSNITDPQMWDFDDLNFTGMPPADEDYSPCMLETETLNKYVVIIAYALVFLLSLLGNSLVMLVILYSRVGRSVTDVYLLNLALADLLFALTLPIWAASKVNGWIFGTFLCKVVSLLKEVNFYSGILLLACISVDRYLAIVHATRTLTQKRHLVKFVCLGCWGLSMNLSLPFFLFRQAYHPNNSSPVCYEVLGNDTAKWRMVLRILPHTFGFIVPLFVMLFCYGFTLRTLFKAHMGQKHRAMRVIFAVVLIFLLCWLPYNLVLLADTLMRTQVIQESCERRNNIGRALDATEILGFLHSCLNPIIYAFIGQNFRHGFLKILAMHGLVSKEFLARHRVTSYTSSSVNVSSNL
Experiment: Figure S2a opioid peptide screen on chemokine receptors
Assay type: cell-based
Design: dose or concentration left out as unconfirmed
Conditions: replicate 1, read-out: CXCR1 activity, ctrl+ = 100
Starred links: 1 amine or outer side, 2 acyl side, 3 side chain; linkers in the order of their positions; H or OH if unused. Non-standard residues stand in square brackets, D forms with d. Residues, ends and D or L forms follow the SMILES beside them. X1 = N[C@@H](Cc1ccccc1)CN(CC(=O)[*:2])[*:1]
READOUT KIND: activation (%)
Record the value in %, omitting the unit from your answer.

Q: If you can, please state the reported activation value of CC(C)C[C@H](NC(=O)[C@H](CCCCN)NC(=O)[C@H](CCCN=C(N)N)NC(=O)[C@H](C)NC(=O)[C@H](CO)NC(=O)[C@H](CCCCN)NC(=O)[C@H](CCCN=C(N)N)NC(=O)[C@H](C)NC(=O)CNC(=O)[C@@H](NC(=O)[C@H](Cc1ccccc1)NC(=O)CNC(=O)CNC(=O)[C@@H](N)Cc1ccccc1)[C@@H](C)O)C(=O)N[C@@H](C)C(=O)N[C@@H](CC(N)=O)C(=O)N[C@@H](CCC(N)=O)C(=O)O .
Ans: -0.193

Q: Need activation, item C[C@H](NC(=O)CNC(=O)[C@@H](NC(=O)[C@H](Cc1ccccc1)NC(=O)CNC(=O)CNC(=O)[C@@H](N)Cc1ccccc1)[C@@H](C)O)C(=O)N[C@@H](CCCNC(=N)N)C(=O)N[C@@H](CCCCN)C(=O)N[C@@H](CO)C(=O)N[C@@H](C)C(=O)N[C@@H](CCCNC(=N)N)C(=O)N[C@@H](CCCCN)C(N)=O
Ans: 0.237

Q: Need activation, item C[C@H](NC(=O)CNC(=O)[C@@H](NC(=O)[C@H](Cc1ccccc1)NC(=O)CNC(=O)CNC[C@@H](N)Cc1ccccc1)[C@@H](C)O)C(=O)N[C@@H](CCCNC(=N)N)C(=O)N[C@@H](CCCCN)C(=O)N[C@@H](CO)C(=O)N[C@@H](C)C(=O)N[C@@H](CCCNC(=N)N)C(=O)N[C@@H](CCCCN)C(N)=O [FG Nociceptin 1-13] (H-[X1]GFTGARKSARK-NH2)
Ans: -0.231

Q: Please look up its activation: NC(=O)[C@H](Cc1ccccc1)NC(=O)[C@H](Cc1c[nH]c2ccccc12)NC(=O)[C@@H]1CCCN1C(=O)[C@@H](N)Cc1ccc(O)cc1 [Endomorphin-1]
Ans: 0.195

Q: Using the record for CC[C@H](C)[C@H](NC(=O)[C@H](CCCNC(=N)N)NC(=O)[C@H](CCCNC(=N)N)NC(=O)[C@H](CC(C)C)NC(=O)[C@H](Cc1ccccc1)NC(=O)CNC(=O)CNC(=O)[C@@H](N)Cc1ccc(O)cc1)C(=O)N[C@@H](CCCNC(=N)N)C(=O)N1CCC[C@H]1C(=O)N[C@@H](CCCCN)C(=O)N[C@@H](CC(C)C)C(=O)N[C@@H](CCCCN)C(=O)N[C@@H](Cc1c[nH]c2ccccc12)C(=O)N[C@@H](CC(=O)O)C(=O)N[C@@H](CC(N)=O)C(=O)N[C@@H](CCC(N)=O)C(=O)O , report its activation.
Ans: 0.562

Q: Value lookup for activation; key = CC[C@H](C)[C@H](NC(=O)[C@H](CCCNC(=N)N)NC(=O)[C@H](CCCNC(=N)N)NC(=O)[C@H](CC(C)C)NC(=O)[C@H](Cc1ccccc1)NC(=O)CNC(=O)CNC(=O)[C@@H](N)Cc1ccc(O)cc1)C(=O)N[C@@H](CCCNC(=N)N)C(=O)N1CCC[C@H]1C(=O)N[C@@H](CCCCN)C(=O)N[C@@H](CC(C)C)C(=O)N[C@@H](CCCCN)C(=O)O
Ans: 0.218
